- assayed-system: Replicase polyprotein 1ab (Severe acute respiratory syndrome-related coronavirus, UniProt P0C6X7)
value-kind: pIC50
Note: pIC50 values are expressed as the negative base-10 logarithm of concentration in M.

State the recorded pIC50 for this entry: O=C(Nc1ccc([N+](=O)[O-])cc1Cl)c1cc(Cl)ccc1O [NICLOSAMIDE] 4.40

----------
- Tested on: RAW264.7
- assay: Cytoprotective activity against anthrax toxin lethal factor/protective antigen-induced cell death in mouse RAW264.7 cells assessed as cell viability at 10 uM by MTT reduction assay
- Type: functional, cell-based
Activity calls are given as the source filed them. The rule behind the calls is not given here.
Output constraint: value belongs to t = active, f = inactive

Previously resolved entries follow.
>>> df
                                   molecule  class_assignment
0                   N=C1Sc2ccccc2C2=NCCCN12                 f
1               Cc1ccnc(-n2sc3ccccc3c2=O)n1                 f
2  O=C(Nc1ccc([N+](=O)[O-])cc1Cl)c1cc(Cl)ccc1O [NICLOSAMIDE]                 t

Kindly review the next molecule as well.
Per the records of this test, what outcome belongs to Cc1ccc2oc(=O)c3cnn(CC(=O)Nc4ccccc4N4CCN(C)CC4)c3c2c1 ? t
